All values here come from patent US9828385B2.

subject_of_test: human V1a receptor (Homo sapiens, UniProt P37288)
Construct: expressed in transfected cells; host or cells: HEK293 cells, transiently transfected; cell membranes
Sequence (P37288 whole entry): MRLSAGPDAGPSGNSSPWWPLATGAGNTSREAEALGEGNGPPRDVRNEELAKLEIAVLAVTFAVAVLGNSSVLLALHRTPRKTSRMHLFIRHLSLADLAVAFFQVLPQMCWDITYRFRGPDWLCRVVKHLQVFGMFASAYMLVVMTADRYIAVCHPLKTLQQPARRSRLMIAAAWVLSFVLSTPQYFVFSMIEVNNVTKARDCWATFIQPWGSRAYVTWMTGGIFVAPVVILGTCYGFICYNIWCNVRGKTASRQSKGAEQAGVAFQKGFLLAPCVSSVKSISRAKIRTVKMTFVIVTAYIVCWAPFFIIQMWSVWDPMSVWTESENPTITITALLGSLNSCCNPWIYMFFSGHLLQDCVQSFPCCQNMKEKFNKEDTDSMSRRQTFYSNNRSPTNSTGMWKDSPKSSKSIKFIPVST
assay_notes: human V1a receptor binding studies (3H-Vasopressin, SPA beads)
details: membranes of HEK293 cells transiently transfected with human V1a receptor, Ki by Cheng-Prussoff from IC50, read-out: pKi hV1a (converted)
measure_name: Ki (nM)

// known answers, use as guide
compound: O=C1N=C(N2CCC3(CC2)OCc2ccccc23)OC1C(O)c1ccccc1 (single isomer, unassigned) [Example 38]
unit_descriptor: nM
Ki: 794

compound: O=C1OC2(CCN(C3=NC(=O)C(CC4CCCC4)O3)CC2)c2ccccc21 (single isomer, unassigned; enantiomer a) [Example 15]
unit_descriptor: nM
Ki: 2.51

P = O=C1N=C(N2CCC3(CC2)OCc2ccccc23)OC12CCSCC2
Q = O=C1N=C(N2CCC3(CC2)OCc2ccc(F)cc23)OC1Cc1ccccc1 (stereo not shown)
(Q) Parameter metric = Ki. Return the lower-valued option from P and Q . Pick one and reply with its label.
(A) Q
